Source listed as paper PMC10786891.

Target: T1, EsCas13d, nuclease-dead (Eubacterium siraeum, UniProt B0MS50, R295A;H300A;R849A;H854A)
T1 sequence: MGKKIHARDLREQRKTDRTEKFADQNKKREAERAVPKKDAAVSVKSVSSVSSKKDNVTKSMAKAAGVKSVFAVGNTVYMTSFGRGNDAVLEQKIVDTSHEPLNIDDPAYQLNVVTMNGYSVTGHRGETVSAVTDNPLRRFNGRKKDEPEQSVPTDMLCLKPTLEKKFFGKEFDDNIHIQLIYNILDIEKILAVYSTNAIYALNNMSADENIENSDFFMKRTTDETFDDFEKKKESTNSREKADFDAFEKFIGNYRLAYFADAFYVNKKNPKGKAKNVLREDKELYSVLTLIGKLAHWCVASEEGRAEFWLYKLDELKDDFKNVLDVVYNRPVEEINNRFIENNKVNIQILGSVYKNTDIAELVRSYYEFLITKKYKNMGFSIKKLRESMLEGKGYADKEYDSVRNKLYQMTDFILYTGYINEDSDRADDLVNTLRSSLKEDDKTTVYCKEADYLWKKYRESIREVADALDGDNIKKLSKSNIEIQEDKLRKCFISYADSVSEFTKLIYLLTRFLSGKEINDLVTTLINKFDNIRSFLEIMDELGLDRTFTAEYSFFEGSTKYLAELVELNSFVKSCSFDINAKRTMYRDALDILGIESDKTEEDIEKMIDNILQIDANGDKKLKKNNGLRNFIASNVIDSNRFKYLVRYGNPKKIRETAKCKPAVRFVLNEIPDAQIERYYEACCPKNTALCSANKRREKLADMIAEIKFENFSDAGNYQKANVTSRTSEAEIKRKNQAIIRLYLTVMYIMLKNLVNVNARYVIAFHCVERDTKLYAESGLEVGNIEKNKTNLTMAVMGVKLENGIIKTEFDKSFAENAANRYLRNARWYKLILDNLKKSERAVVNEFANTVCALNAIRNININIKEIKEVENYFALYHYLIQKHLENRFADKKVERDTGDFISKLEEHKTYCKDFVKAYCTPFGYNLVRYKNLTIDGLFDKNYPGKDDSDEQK
Test: crRNA (strand 1, pre-loaded); Mg2+; 40 mM Tris-HCl pH 7.5, 150 mM NaCl, 6 mM MgCl2, 1 mM DTT, 0.1% Tween-20, 0.2 mg/ml BSA; 25 C; 10 min per concentration, then washed
Conditions: tags: His6-TwinStrep-SUMO cleaved; N-terminal SNAP kept (SNAP-Surface 488); label: 3' end held by stalled T7 RNA polymerase
property.label: pKd
# pKd is unitless: minus log10 of the molar concentration; print number only

Check out these entries, answers already filled in.
target 1 MT 5'PFS UCC 3'PFS CCG (mixed) RNA 1: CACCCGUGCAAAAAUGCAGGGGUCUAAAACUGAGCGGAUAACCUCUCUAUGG RNA 2: GGGAAUGGAUCCACAUCUACGAAUUCUCCCCAUAGAGAGGUUAUCCGCUCACCGAGAUCGGAAGAGCACACGU: 7.74
target 2 MT 5'PFS AGG 3'PFS ACG (mixed) RNA 1: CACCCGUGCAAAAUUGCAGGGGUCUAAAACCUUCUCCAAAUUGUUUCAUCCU RNA 2: GGGAAUGGAUCCACAUCUACGAAUUCAGGAGGAUGAAACAAUUUGGAGAAGACGAGAUCGGAAGAGCACACGU: 8.17
target 1 insA 3' of 17,insC 3' of 16 (mixed) RNA 1: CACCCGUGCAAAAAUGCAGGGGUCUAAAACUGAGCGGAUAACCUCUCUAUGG RNA 2: GGGAAUGGAUCCACAUCUACGAAUUCGUACCAUAGAACGAGGUUAUCCGCUCACCGAGAUCGGAAGAGCACACGU: 7.94

Proceeding to the next binder to report its pKd.
Ask | I'd like to know its pKd. The binder in question is target 1 C2A,G5C (mixed) RNA 1: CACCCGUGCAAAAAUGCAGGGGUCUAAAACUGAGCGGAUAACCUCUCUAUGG RNA 2: GGGAAUGGAUCCACAUCUACGAAUUCGUACCAUAGAGAGGUUAUCCCCUAACCGAGAUCGGAAGAGCACACGU
Reply | 8.19
